Experiment Description: self-splicing fitness, log relative to wild type (ln ratio); higher = more splicing; Tetrahymena group I intron in knt gene, E. coli kanamycin selection, DiMSum; sequences stand for … in CUCUCU…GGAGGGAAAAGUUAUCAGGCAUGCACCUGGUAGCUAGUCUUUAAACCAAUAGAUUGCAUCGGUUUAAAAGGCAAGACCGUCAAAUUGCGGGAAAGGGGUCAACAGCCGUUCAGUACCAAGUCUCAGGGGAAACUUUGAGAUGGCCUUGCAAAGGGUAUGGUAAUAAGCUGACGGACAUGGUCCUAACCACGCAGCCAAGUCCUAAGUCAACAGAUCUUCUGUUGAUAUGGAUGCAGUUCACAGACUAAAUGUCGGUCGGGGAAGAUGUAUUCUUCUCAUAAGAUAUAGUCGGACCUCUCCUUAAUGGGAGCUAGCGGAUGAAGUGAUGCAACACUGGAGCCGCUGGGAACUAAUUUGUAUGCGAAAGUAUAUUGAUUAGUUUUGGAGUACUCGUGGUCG;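 also: selection with 25 µg/mL kanamycin versus none on LB agar overnight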
Condition Parameters: 30 °C
For each record, write down the corresponding self-splicing fitness (ln).
One number for each entry.

Take a look at these entries with their results.
CAGUAGCAAUAUUACGCAAG
-1.07
GUGUAGCAAUAUUACGCAUA
-2.5
CAGGAGCAAUAUUACGUAUU
-2.97

Attention now turns to another entry.
Query string: What self-splicing fitness (ln) value was documented for this sequence, GCCCAGCAAUAUUACGAUAA ?
Result string: -2.26

* * *

Experiment Description: self-splicing fitness, log relative to wild type (ln ratio); higher = more splicing; Tetrahymena group I intron in knt gene, E. coli kanamycin selection, DiMSum; sequences stand for … in CUCUCU…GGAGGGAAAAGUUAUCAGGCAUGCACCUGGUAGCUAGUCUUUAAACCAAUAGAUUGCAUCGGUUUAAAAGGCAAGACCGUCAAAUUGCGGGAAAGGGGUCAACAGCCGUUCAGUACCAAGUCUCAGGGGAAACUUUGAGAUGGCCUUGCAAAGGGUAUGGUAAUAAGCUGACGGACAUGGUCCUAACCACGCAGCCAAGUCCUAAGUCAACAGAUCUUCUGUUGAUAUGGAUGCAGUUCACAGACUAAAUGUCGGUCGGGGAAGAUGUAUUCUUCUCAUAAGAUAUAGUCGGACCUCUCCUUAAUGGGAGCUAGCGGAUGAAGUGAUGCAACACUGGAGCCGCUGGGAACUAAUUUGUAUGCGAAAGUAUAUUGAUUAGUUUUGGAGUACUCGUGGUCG
Condition Parameters: 30 °C
For each record, write down the corresponding self-splicing fitness (ln).
Numbers only.

Take a look at these entries with their results.
AGAAAGCAAUAUUACGUCAG
-1.94
AACAAGCAAUAUUACGUGGG
-2.93
AGAAAGCAAUAUUACGACUU
-0.252

For every item below, please supply its self-splicing fitness (ln).
1. ACGGAGCAAUAUUACGGUUA
2. UUUCAGCAAUAUUACGGUCC
3. GGCAAGCAAUAUUACGAUCG

Result string:
-2.6
-2.8
-0.12

* * *

For each record, write down the corresponding self-splicing fitness (ln).
Experiment Description: self-splicing fitness, log relative to wild type (ln ratio); higher = more splicing; Tetrahymena group I intron in knt gene, E. coli kanamycin selection, DiMSum; sequences stand for … in CUCUCU…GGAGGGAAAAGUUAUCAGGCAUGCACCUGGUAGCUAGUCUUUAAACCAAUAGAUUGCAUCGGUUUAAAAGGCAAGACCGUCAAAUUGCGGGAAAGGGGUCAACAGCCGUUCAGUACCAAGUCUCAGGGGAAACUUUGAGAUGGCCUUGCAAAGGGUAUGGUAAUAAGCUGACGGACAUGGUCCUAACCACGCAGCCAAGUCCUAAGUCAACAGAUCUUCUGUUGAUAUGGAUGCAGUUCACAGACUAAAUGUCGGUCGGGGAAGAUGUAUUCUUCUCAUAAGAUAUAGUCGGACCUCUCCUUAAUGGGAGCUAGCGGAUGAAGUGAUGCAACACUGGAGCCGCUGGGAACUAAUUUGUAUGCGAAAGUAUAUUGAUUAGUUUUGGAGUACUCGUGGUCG
Condition Parameters: 30 °C
Give bare numbers.

Take a look at these entries with their results.
CGGCAGCAAUAUUACGAUUA
-2.86
GGUCAGCAAUAUUACGGACC
-3.67
ACUAAGCAAUAUUACGCGUG
-1.58

For every item below, please supply its self-splicing fitness (ln).
1. CCCGAGCAAUAUUACGAUGA
2. GAAAAGCAAUAUUACGCUCG
3. UAGCAGCAAUAUUACGCGUU
4. ACGGAGCAAUAUUACGCUAC
5. AAAGAGCAAUAUUACGCGAU

Result string:
1: -3.45; 2: -0.762; 3: -2.72; 4: -3.07; 5: -2.63

For every item below, please supply its self-splicing fitness (ln).
1. UGUUAGCAAUAUUACGGAAU
2. UGCUAGCAAUAUUACGAAGU
3. UUAAAGCAAUAUUACGUACG
4. GGGGAGCAAUAUUACGUCCU
5. CACAAGCAAUAUUACGUCCG
6. GACCAGCAAUAUUACGCUCG

Result string:
1: -0.534; 2: -2.88; 3: 0.121; 4: -3.89; 5: -0.428; 6: -0.964

For every item below, please supply its self-splicing fitness (ln).
1. ACCCAGCAAUAUUACGCGGU
2. GAUCAGCAAUAUUACGCACU
3. CCGGAGCAAUAUUACGAGUG
4. AACCAGCAAUAUUACGGCUC
5. UCGCAGCAAUAUUACGUAAU
6. GGAUAGCAAUAUUACGCCAG
7. UAGGAGCAAUAUUACGGAUC

Result string:
-3.41
0.181
-1.61
-1.34
-3.39
-2.63
-3.44

For every item below, please supply its self-splicing fitness (ln).
1. AAACAGCAAUAUUACGGAUU
2. AUUGAGCAAUAUUACGCGUC

Result string:
1. -1.67
2. -3.26

* * *

Experiment Description: self-splicing fitness, log relative to wild type (ln ratio); higher = more splicing; Tetrahymena group I intron in knt gene, E. coli kanamycin selection, DiMSum; sequences stand for … in CUCUCU…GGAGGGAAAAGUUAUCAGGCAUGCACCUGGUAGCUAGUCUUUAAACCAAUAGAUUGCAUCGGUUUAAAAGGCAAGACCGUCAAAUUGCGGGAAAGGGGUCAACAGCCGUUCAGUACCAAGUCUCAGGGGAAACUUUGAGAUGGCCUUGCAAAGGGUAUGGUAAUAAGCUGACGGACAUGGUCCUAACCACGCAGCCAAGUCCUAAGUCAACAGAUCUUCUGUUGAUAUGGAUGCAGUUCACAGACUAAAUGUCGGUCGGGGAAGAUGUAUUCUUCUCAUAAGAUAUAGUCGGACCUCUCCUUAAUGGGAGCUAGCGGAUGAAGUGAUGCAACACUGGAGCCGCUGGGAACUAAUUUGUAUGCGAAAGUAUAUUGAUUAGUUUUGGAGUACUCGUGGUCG
Condition Parameters: 30 °C
Labels assigned by self-splicing fitness (ln) range: range 1 (below -3), range 2 (-3 to below -1), range 3 (-1 or more)

Solved entries (count: 5):
GAACAGCAAUAUUACGUUGG
range 2
UUUUAGCAAUAUUACGCCUG
range 3
CUUCAGCAAUAUUACGAACA
range 3
UACAAGCAAUAUUACGUGCU
range 1
UGGGAGCAAUAUUACGUCUU
range 1

Query string: Lab note: which band did GUUAAGCAAUAUUACGACCU land in?
Result string: range 3

Query string: Lab note: which band did AAUCAGCAAUAUUACGCUCU land in?
Result string: range 3

Query string: Lab note: which band did UCCUAGCAAUAUUACGCAUG land in?
Result string: range 2

* * *

Experiment Description: self-splicing fitness, log relative to wild type (ln ratio); higher = more splicing; Tetrahymena group I intron in knt gene, E. coli kanamycin selection, DiMSum; sequences stand for … in CUCUCU…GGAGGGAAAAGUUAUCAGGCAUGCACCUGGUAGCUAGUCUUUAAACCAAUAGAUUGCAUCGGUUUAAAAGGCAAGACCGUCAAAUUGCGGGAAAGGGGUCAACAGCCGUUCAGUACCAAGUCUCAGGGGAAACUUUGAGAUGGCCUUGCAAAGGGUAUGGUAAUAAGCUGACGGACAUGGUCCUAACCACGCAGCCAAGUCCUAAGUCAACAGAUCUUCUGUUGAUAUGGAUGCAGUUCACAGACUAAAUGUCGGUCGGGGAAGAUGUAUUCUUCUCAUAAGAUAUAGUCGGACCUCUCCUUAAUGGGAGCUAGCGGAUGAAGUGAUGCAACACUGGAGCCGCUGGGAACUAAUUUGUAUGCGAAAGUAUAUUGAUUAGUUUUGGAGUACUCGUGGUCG
Condition Parameters: 30 °C
I would appreciate it if you labelled entries MET when self-splicing fitness (ln) is -2 or higher, otherwise NOT MET.

CAAGAGCAAUAUUACGGCAA
NOT MET
UUUUAGCAAUAUUACGGAUG
MET
UGUCAGCAAUAUUACGGCUG
NOT MET

Query string: Check the entry UCACAGCAAUAUUACGGUCU : does self-splicing fitness (ln) equal or exceed -2?
Result string: MET

Query string: Check the entry GAUAAGCAAUAUUACGGUCU : does self-splicing fitness (ln) equal or exceed -2?
Result string: NOT MET

Query string: Check the entry AGGCAGCAAUAUUACGCAAG : does self-splicing fitness (ln) equal or exceed -2?
Result string: MET

The measured values listed here are drawn from the supplement of paper PMC7877785.
